Provenance of the data: PubChem BioAssay

Please go through the items and note down their z-score.
Assay: S. cerevisiae growth modulation with rapamycin, primary screen, strain BY4716, OD600, 96 h (AID 1091); further: test concentration not given here
Conditions: higher = more signal, called active from +8 up or from −8 down
Give bare numbers.

Observe how each entry below is paired with its result.
MOLECULE	z-score
CCOC(=O)C[C@H]1[C@H](OC(=O)c2ccc(-c3ccccc3)cc2)[C@@H](NC(=O)c2ccc3ccccc3c2)c2cc(OCCCO)ccc2N1C(=O)c1ccccc1	1.26
CCC[C@@H]1[C@@H](Sc2ccccc2)[C@@H](C(=O)O)[C@H](c2ccc(C)cc2)N1S(=O)(=O)c1ccc(C)cc1	-0.698
COCC(=C=CC[C@@H](O)c1cccc(OCCO)c1)C[C@@H](O)COCc1ccccc1	-0.592
C=CCC(OC(C)=O)[C@@H]1[C@@H](N(Cc2ccc(-c3cccc(C(F)(F)F)c3)o2)C(=O)c2cccc3ccccc23)c2cc(OCCCO)ccc2N1C(=O)c1ccc2ccccc2n1 (some centres not stated)	0.356
C=CCNC(=O)[C@H]1[C@@H]2C(=O)O[C@@H](c3ccccc3)[C@@H](c3ccccc3)N2[C@@H](c2ccc(O)cc2)[C@]12C(=O)Nc1ccc(C#CC3=CCCCC3)cc12	1.98
COCCOC(=O)N1C(=O)[C@@]2(c3cc(C#CCCO)ccc31)[C@H](c1ccccc1OCCO)N1[C@H](c3ccccc3)[C@H](c3ccccc3)OC(=O)[C@H]1[C@@H]2C(=O)N1CCc2cc(OC)c(OC)cc2C1	3

Would you mind giving z-score for every molecule in the list below?
1. C=C(COC)C(=O)CC[C@@H](OC(C)=O)c1ccc(OCCO)cc1
2. COCCn1c(C(=O)N2CCCC2)cc2c1C[C@H]1CN(C(=O)c3ccccc3)[C@@](Cc3ccccc3)(C(=O)OC)[C@@H]21

[-0.056, 0.573]

Go through the items and report each one's z-score.
1. C=CCC(OC(C)=O)[C@@H]1[C@@H](N(Cc2ccc(-c3ccccc3)cc2)C(=O)c2cccc3ccccc23)c2cc(OCCCO)ccc2N1C(=O)c1ccc2ccccc2c1 (some centres not stated)
2. CCCCC(O)C1C=CC2C(=O)NC(=O)C2N1Nc1ccc(Cl)cc1Cl (configuration not stated)
3. O=C(NCCO)C1=C[C@H](Oc2ccccc2I)[C@@H](O)[C@H](NCc2ccc(F)cc2)C1
4. CCOC(=O)C1=CC[C@@H](c2ccccc2)N(S(=O)(=O)C[Si](C)(C)C)[C@H]1c1ccccc1
5. COC(=O)[C@@]1(Cc2ccc(F)cc2)[C@H]2c3cc(C(=O)N(C)C)n(CCn4cc([N+](=O)[O-])nc4C)c3C[C@H]2CN1C(=O)c1ccccc1
6. CCCC[C@H]1OB(O)C[C@H]2C1=C(C)C[C@H]1C(=O)C=CC(=O)[C@H]12
7. CC[C@H](C)C(=O)O[C@H]1CC[C@]2(C)C3=C(CCC2C1(C)C)[C@]1(C)CC[C@H]([C@H](C)CCCC(C)C)[C@@]1(C)CC3 (some centres not stated)

1: -0.569; 2: -1.58; 3: -0.455; 4: 0.416; 5: 0.942; 6: -0.0407; 7: 0.17

# batch size: 7; output z-score per entry
1. C=CCC(OC(C)=O)[C@@H]1[C@@H](N(Cc2ccc(-c3ccccc3)cc2)C(=O)c2ccc(-c3ccccc3)cc2)c2cc(OCCCO)ccc2N1C(=O)c1ccc2ccccc2n1 (some centres not stated)
2. COC(=O)C1=CC(CCCO)=CC(c2ccc(CN3CCCC3)cc2)N(Cc2sc3ccccc3c2Cl)C=C1C(=O)OC (configuration not stated)
3. N#Cc1ccc(C(O)C2C=CC3C(=O)NC(=O)C3N2Nc2ccccn2)cc1 (configuration not stated)
4. COc1ccc(CCNC(=O)[C@@]2(Sc3ccc(C)cc3)CC(=O)N(C(C)C)[C@@H]2c2ccc(CO)cc2)cc1
5. C=CCNC(=O)[C@@H]1[C@H]2C(=O)O[C@H](c3ccccc3)[C@H](c3ccccc3)N2[C@H](c2ccc(O)cc2)[C@@]12C(=O)Nc1ccc(C#CC3(O)CCCCCC3)cc12
6. COCC(=C=CC[C@@H](O)c1ccc(OCCO)cc1)C[C@@H](O)COCc1ccccc1
7. COC(=O)[C@@]1(Cc2ccc(OC)cc2)[C@H]2c3cc(C(=O)N(C)C)n(Cc4ccsc4Br)c3C[C@H]2CN1C(=O)c1ccccc1

-0.0474
-1.39
-0.657
0.088
0.0489
-0.474
1.53

* * *

Assay: COS7 lysate on small-molecule microarray, probe aHis, 635 nm (AID 1123);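 further: z-score combines 667nm fluorescence intensity with signal-to-noise per printed compound spot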
Conditions: COS7 cell lysate, fluorescence, higher = more signal
MEASURED PARAMETER: composite z-score
Answers are plain numbers.

For every listed record, write down its composite z-score.
1. CCCC=C(CCC)[C@@H](NS(=O)(=O)c1ccc(Cl)cc1)c1ccccc1
2. CCCC[C@@H](O)C1=C(COC)Cn2c(=O)n(-c3ccccc3)c(=O)n2[C@H]1CO
3. Cc1ccc(S(=O)(=O)N2[C@@H](c3ccccc3)C(C(=O)O)=CC[C@H]2c2ccc(C#N)cc2)cc1
4. CCOC(=O)C[C@H]1[C@H](OC(=O)c2cc3ccccc3oc2=O)[C@@H](NC(=O)C2CCCCC2)c2cc(OCCCO)ccc2N1C(=O)Cc1ccc(OC)cc1
5. COCCOC(=O)N1C(=O)[C@@]2(c3cc(C#CCC(C(=O)OC)C(=O)OC)ccc31)[C@H](C(=O)N1CCCCCCC1)[C@H]1C(=O)O[C@H](c3ccccc3)[C@H](c3ccccc3)N1[C@@H]2c1ccccc1OCCO

1: 0.829; 2: -0.162; 3: 3.18; 4: 0.988; 5: 3.14

Provide the reported composite z-score of each entry below, same order.
1. C=CC[C@]1(C(=O)NCc2ccccc2)COC(c2ccc(OCCCO)cc2)=N1
2. COc1ccc(CCNC(=O)[C@@]2(Sc3ccc(C)cc3)CC(=O)N(Cc3cc(C(F)(F)F)cc(C(F)(F)F)c3)[C@@H]2c2ccc(CO)cc2)cc1

1: 2.75; 2: 1.16

* * *

Experiment: Plasmodium falciparum growth inhibition, primary screen, strain 3D7, DAPI fluorescence, 100 nL (AID 1184);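 further: parasites grown inside human red blood cells in medium with human serum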
Details: P. falciparum 3D7 growth, 3 d, higher = more signal
Threshold check on z-score: at or above -1 gives Condition met, strictly below gives Condition not met.

Look over these answered cases.
COMPOUND	ASSIGNED CLASS
CCCCC=C[C@@H](NC(=O)c1ccc(C(F)(F)F)cc1)c1ccccc1	Condition met
C=CCC(OC(C)=O)[C@@H]1[C@@H](N(Cc2cc3ccccc3o2)C(=O)c2cccc3ccccc23)c2cc(OCCCO)ccc2N1C(=O)c1ccc2ccccc2c1 (some centres not stated)	Condition not met
COCC(=C=CC[C@@H](O)c1ccc(OCCO)cc1)C[C@@H](O)COCc1ccccc1	Condition not met

Record COC(=O)[C@@]1(Cc2ccc(F)cc2)[C@H]2c3cc(C(=O)N(C)C)n(CCN4CCOCC4)c3C[C@H]2CN1C(=O)c1ccccc1 ; criterion: z-score no lower than -1. Met?
Condition not met

Reported z-score at or above -1? COc1ccc(C#Cc2ccc3c(c2)[C@]2(C(=O)N3)[C@H](c3ccc(OCCO)cc3)N3[C@H](c4ccccc4)[C@H](c4ccccc4)OC(=O)[C@H]3[C@@H]2C(=O)O)cc1
Condition not met

Does the reported z-score for CN(C)CCCC[C@@H]1NC(=O)[C@H]2C[C@@H](C(=O)NCc3ccc(F)cc3)[C@@H](c3ccc(O)cc3)N2C1=O fall at or above the -1 mark?
Condition met

* * *

Test: fission yeast growth modulation, primary screen, strain 972, OD600, 24 h, no modulator (AID 1090);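 further: basal condition with compound alone and no growth modifier present; test concentration not given here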
Conditions: S. pombe 972 growth, higher = more signal, called active from +8 up or from −8 down
Give z-score for every item shown.
Give bare numbers.

Previously resolved entries follow.
COMPOUND	MEASURED PARAMETER	ASSAY VALUE
CCOC(=O)C[C@H]1[C@H](OC(=O)Cc2ccc3c(c2)OCO3)[C@@H](NC(=O)c2ccccc2)c2cc(OCCCO)ccc2N1C(=O)Cc1ccc(OC)cc1	z-score	-0.91
CN1C(=O)[C@]2(CCS(=O)(=O)c3ccccc3)N=C(c3ccc(OCCCO)cc3)O[C@@H]2c2ccccc21	z-score	-0.895
CC(C)CNC(=O)[C@@H]1c2ccccc2C(=O)N(Cc2ccccc2)[C@H]1c1ccc(CO)cc1	z-score	0.138
CN1C(=O)C2C(C1=O)C1C=C(c3ccc(CO)cc3)C2C(c2cccs2)N1C (configuration not stated)	z-score	-2.24
COc1ccc(CCNC(=O)[C@@]2(C)c3ccccc3C(=O)N(Cc3cc(C(F)(F)F)cc(C(F)(F)F)c3)[C@H]2c2ccc(CO)cc2)cc1	z-score	-0.836

Give measured z-score for every item shown.
1. CCCC[C@H]1OB(O)C[C@H]2C1=C(C)C[C@H]1C(=O)C=CC(=O)[C@H]12
2. O=C1O[C@@H](c2ccccc2)[C@@H](c2ccccc2)N2[C@@H](c3ccc(OCCO)cc3)[C@]3(C(=O)Nc4ccc(C#CCCO)cc43)[C@@H](C(=O)Nc3nc4ccccc4s3)[C@H]12

-15.4
0.415
